test: Human HepG2 cell viability assay in 384 well format; format: toxicity, cell-based; design: dose 125 nL, time 70.5 hour; concentration not given beside the values; conditions: HepG2 cells, read-out: Inhibition
measurementLabel: cytotoxicity at 70.5 h (%)
Express it in %; write the number only.

Some solved cases for reference:
compound | cytotoxicity at 70.5 h, %
COC(=O)[C@H]1C[C@@H](O)CCN1S(=O)(=O)c1cc(Cl)ccc1OC | -11.2
Cc1noc(Cl)c1CCC(=O)N1CCN(Cc2ccncc2)CC1 | -4.95
COCC(=O)N1CCCN(Cc2cc(O)c3ccccc3n2)CC1 | -9.45

Here is the next item to consider.
Look up cytotoxicity at 70.5 h for this compound: Cc1ccccc1CCC(=O)N1CCCC(c2cc(C(N)=O)[nH]n2)C1 (centres undefined)
6.15

* * *

assay: Human HepG2 cell viability assay in 384 well format; format: toxicity, cell-based; design: dose 125 nL, time 70.5 hour; concentration not given beside the values; details: HepG2 cells, read-out: Inhibition
Consider the following molecules and their measured cytotoxicity at 70.5 h readings.
Express it in %; write the number only.

Some solved cases for reference:
molecule | measurementLabel | endpointResult
Cc1ccc(C(NC(=O)CCNC(=O)c2ccoc2)C(F)(F)F)cc1 (stereo not given) | cytotoxicity at 70.5 h | -0.123
Cc1noc([C@H]2C[C@H]3CN(C(=O)C4CCOCC4)CC[C@@H]3O2)n1 | cytotoxicity at 70.5 h | -12.9
CC(CO)NC(=O)c1ccc2[nH]/c(=N\S(C)(=O)=O)sc2c1 (stereo not given) | cytotoxicity at 70.5 h | -3.5

Look up cytotoxicity at 70.5 h for this molecule: O=C(CCOCC(F)(F)F)NS(=O)(=O)c1cccnc1
-3.03

Look up cytotoxicity at 70.5 h for this molecule: Cc1nc(N2CCN(C)CC2)ncc1C(=O)N1CCC(O)(CO)CC1
-6.38

Look up cytotoxicity at 70.5 h for this molecule: Cc1nn(C)cc1-c1ccnc(N(C)Cc2ccc(F)cc2)n1
-4.85

Look up cytotoxicity at 70.5 h for this molecule: COc1nc2c(cc1C(=O)N1CCCOC(CN3CCCC3)C1)CCC2 (stereo not given)
-13.7

Look up cytotoxicity at 70.5 h for this molecule: CC(O)CN1CCC(CNCc2cccc(Br)c2)CC1 (stereo not given)
24.8

* * *

assay: Human HepG2 cell viability assay in 384 well format; format: toxicity, cell-based; set-up: dose 125 nL, time 70.5 hour; concentration not given beside the values; settings: HepG2 cells, read-out: Inhibition
measurementLabel: cytotoxicity at 70.5 h (%)
Express it in %; write the number only.

Some solved cases for reference:
molecule | cytotoxicity at 70.5 h, %
COc1cccc(N2CCC(CNC(=O)NCc3ccco3)C2)c1 (configuration not stated) | -0.834
N#Cc1ccc(C(=O)NS(=O)(=O)c2ccc(C#N)c(Cl)c2)cc1 | -8.83
Cc1cccc(C(=O)N2CCC(C(=O)c3cc(F)ccc3F)CC2)n1 | -7.52
COc1ccc(C(C)NC(=O)NCCNc2ccccn2)c(OC)c1 (configuration not stated) | 27.8
Cc1cnn(CC2CN(CCS(C)(=O)=O)CCO2)c1 (configuration not stated) | -4.67

Look up cytotoxicity at 70.5 h for this molecule: Cc1cc(N2Cc3cnn(CCO)c3C2)nc(-c2ccccc2O)n1
-4.43

Look up cytotoxicity at 70.5 h for this molecule: Cc1nc(CN(C)C2CCN(CCn3cc(C#N)cn3)C2)no1 (configuration not stated)
8.59

Look up cytotoxicity at 70.5 h for this molecule: CC1CN(c2ncnc3ccccc23)CCO1 (configuration not stated)
10

Look up cytotoxicity at 70.5 h for this molecule: Oc1cc(CNCCN2CCCCC2)nc2c(F)cccc12
24.5

Look up cytotoxicity at 70.5 h for this molecule: O=C(c1cc[nH]n1)N1CCCC(c2cc(C(F)(F)F)[nH]n2)C1 (configuration not stated)
-17.8

Look up cytotoxicity at 70.5 h for this molecule: CN(C)C[C@H]1OC[C@@H]2CCN(C(=O)c3ccc[nH]3)C[C@@H]21
-4.7

* * *

test: Human HepG2 cell viability assay in 384 well format; assay type: toxicity, cell-based; design: dose 125 nL, time 70.5 hour; concentration not given beside the values; settings: HepG2 cells, read-out: Inhibition
Consider the following compounds and their measured cytotoxicity at 70.5 h readings.

Some solved cases for reference:
compound | cytotoxicity at 70.5 h
CCN(CC)C(=O)C1CCC2(CCNCC2)CO1 (configuration not stated) | -14.2%
COCCC1COC2(CCN(C(=O)C3CCC3)CC2)C1 (configuration not stated) | -3.7%
CC(=O)NCCC(=O)NCc1cccnc1-n1cnc2ccccc21 | -8.92%
COc1ccc(C)cc1-c1[nH]c2ccccc2c1C(=O)O | -10.2%
CC(NC(=O)c1cc(Br)c2c(c1)OCCO2)C(N)=O (configuration not stated) | 16.6%
Cc1ccccc1[C@@H]1CN(C(=O)c2ccc3[nH]nnc3c2)C[C@H]1C(=O)O | -4.82%

Look up cytotoxicity at 70.5 h for this compound: Cc1noc(-c2ccnc(N3CCN(C4CCOCC4)CC3)c2)n1
10.1%

Look up cytotoxicity at 70.5 h for this compound: Cc1ccc2[nH]nc(C(=O)NCC3CCN(Cc4c[nH]cn4)C3)c2c1 (configuration not stated)
-5.7%

Look up cytotoxicity at 70.5 h for this compound: CN(c1cccnn1)[C@@H]1CC[C@@H]2CN(Cc3ccccc3C(=O)O)C[C@@H]21
-6.92%

Look up cytotoxicity at 70.5 h for this compound: CCOc1ccc(C(F)(F)F)cc1NC(=O)NCc1noc(C)n1
-8.58%

Look up cytotoxicity at 70.5 h for this compound: CN(C(=O)C1CCOCC1)[C@@H]1CCC[C@@H](N2CCOCC2)[C@@H]1O
-5.89%

Look up cytotoxicity at 70.5 h for this compound: O=C1[C@H]2CN(Cc3ccccc3)C[C@H]2CN1CCN1CCCC1
-8.49%

* * *

experiment: Human HepG2 cell viability assay in 384 well format; type: toxicity, cell-based; design: dose 125 nL, time 70.5 hour; concentration not given beside the values; details: HepG2 cells, read-out: Inhibition
measurementLabel: cytotoxicity at 70.5 h (%)
Express it in %; write the number only.

compound | scaleUnit | cytotoxicity at 70.5 h
CC(C)N1CCOCC2(CN(Cc3cccs3)CCO2)C1 (stereo unspecified) | % | -0.496
CS(=O)(=O)NCCc1cccc2cccnc12 | % | 25.3

Look up cytotoxicity at 70.5 h for this compound: COc1cccc(CNC(=O)NC2(c3nc(C)no3)CCCCC2)c1
13.3

Look up cytotoxicity at 70.5 h for this compound: CCSc1cc(C(=O)N(Cc2cnn(C)c2)C(C)C)ccn1
-11.4

Look up cytotoxicity at 70.5 h for this compound: CCOc1ccccc1N(C)Cc1nccn1C
4.63

Look up cytotoxicity at 70.5 h for this compound: CCN(Cc1ccco1)C(C)c1nc(C(C)C)no1 (stereo unspecified)
-3.54

* * *

Consider the following compounds and their measured cytotoxicity at 70.5 h readings.
assay: Human HepG2 cell viability assay in 384 well format; format: toxicity, cell-based; set-up: dose 125 nL, time 70.5 hour; concentration not given beside the values; conditions: HepG2 cells, read-out: Inhibition
Express it in %; write the number only.

Some solved cases for reference:
compound | cytotoxicity at 70.5 h [%]
Cc1cnc(N2CCN(C)c3ncccc3C2)nc1 | 4.51
O=C(NCC1(O)CCc2ccccc2C1)c1cccs1 (configuration not stated) | -14.5
CCCc1[nH]n(C)c(=N)c1-c1ccc2c(c1)OCO2 | -3.98
O=C(c1ccc[nH]1)N1CCc2nnc(Cn3cccc3)n2CC1 | -7.68
Cc1ncc(CNC(=O)Cc2cccs2)c(C2CCCN2C)n1 (configuration not stated) | -4.94

Look up cytotoxicity at 70.5 h for this compound: CCc1nc(CN2CCCN(C(=O)c3ccnc(C)n3)CC2)cs1
3.9

Look up cytotoxicity at 70.5 h for this compound: COc1ccc(C(CNC(=O)Nc2cc(C)nn2C)N(C)C)cc1 (configuration not stated)
-5.49

Look up cytotoxicity at 70.5 h for this compound: CCn1cc(CNC(C)c2noc(-c3ccc(Cl)cc3)n2)cn1 (configuration not stated)
-3.37

Look up cytotoxicity at 70.5 h for this compound: CC(=O)NC1Cc2ccc(S(=O)(=O)NCCNc3ccccn3)cc2C1 (configuration not stated)
-4.42

Look up cytotoxicity at 70.5 h for this compound: COc1ccc(CN2C[C@@H]3CN(Cc4cccnc4)CCO[C@@H]3C2)cc1
-9.13

* * *

Consider the following molecules and their measured cytotoxicity at 70.5 h readings.
experiment: Human HepG2 cell viability assay in 384 well format; type: toxicity, cell-based; parameters: dose 125 nL, time 70.5 hour; concentration not given beside the values; details: HepG2 cells, read-out: Inhibition
Express it in %; write the number only.

molecule | scaleUnit | cytotoxicity at 70.5 h
COCCOCCNc1cncc(Br)c1 | % | -0.213

Look up cytotoxicity at 70.5 h for this molecule: COCCn1ccc2ccc(C(=O)O)cc21
-9.99

Look up cytotoxicity at 70.5 h for this molecule: CC(C)Cc1noc(CN2CCCC(CNS(N)(=O)=O)C2)n1 (stereo not drawn)
-3.24

Look up cytotoxicity at 70.5 h for this molecule: Cc1cc(-c2ccc(C(C)N3CCCCC3)cc2)cnc1N (stereo not drawn)
-1.07

Look up cytotoxicity at 70.5 h for this molecule: CCOc1ccccc1C(CC(=O)N(C)C)NC(C)=O (stereo not drawn)
-0.953

Look up cytotoxicity at 70.5 h for this molecule: COCc1cc(C[C@@H]2CC[C@H](O)[C@@H](CNCC(C)C)O2)no1
-0.483

Look up cytotoxicity at 70.5 h for this molecule: CCNC(=O)NC(=O)CNC(C)(C)c1ccc2c(c1)OCO2
-4.4

Look up cytotoxicity at 70.5 h for this molecule: CCC(CO)N(Cc1ccccn1)C(=O)c1ccc2c(c1)CCO2 (stereo not drawn)
15
